test system: RPMI-8226 leukemia; assay: NCI tumour cell line growth inhibition, 48 h
Listed here are compounds together with their documented TGI.

- COMPOUND: "C[C@]12CC[C@@H]3c4ccc(Oc5nc(N6CC6)nc(N6CC6)n5)cc4CC[C@H]3[C@@H]1CCC2=O"
  TGI: "7.58 µM"
- COMPOUND: "COc1cc(C2c3cc4c(cc3[C@@H](Nc3ccccc3)C3CO[C@@H](OC)[C@H]23)OCO4)cc(OC)c1O (some centres undefined)"
  TGI: "10.2 µM"
- COMPOUND: "Cc1cccc(C(C)(C)C)c1NC(=O)CCc1n[nH]c(=S)o1"
  TGI: "51.6 µM"
- COMPOUND: "CCOC(=O)NC(Nc1ccc(S(=O)(=O)Nc2ncccn2)cc1)(C(=O)OCC)C(F)(F)F (centres undefined)"
  TGI: "> 100 µM"
- COMPOUND: "CC[N+](C)(CC)Cc1ccccc1[N+](=O)[O-]"
  TGI: "> 100 µM"
- COMPOUND: "O=[N+]([O-])c1ccccc1N=Nc1c(O)sc2ccccc12"
  TGI: "> 100 µM"
- COMPOUND: "O=C(CC(=O)N1N=C(c2ccccc2)C(N=Nc2ccc(Cl)cc2)C1=O)Nc1ccccc1Cl (centres undefined)"
  TGI: "> 100 µM"
- COMPOUND: "CCCCn1c(C)c(C(=O)OCC)c2cc(OCc3ccc(C(=O)Nn4c(C)ccc4C)cc3)c(Br)cc21"
  TGI: "> 100 µM"
- COMPOUND: "CC[C@]12C=CCN3CC[C@@]4(c5ccc(OC)cc5N(C)[C@H]4[C@@](O)(C(=O)OC)[C@@H]1OC(C)=O)[C@@H]32"
  TGI: "> 200 µM"

----------
Listed here are compounds together with their documented TGI.
test system: MDA-N; assay: NCI tumour cell line growth inhibition, 48 h
Where a SMILES comes first, the peptide text is derived from it. Bridges are numbered along the chain shown (N, C = ends). [ ]: non-standard residue; d: D form. The star is where a group is joined. Cbz = O=C(OCc1ccccc1)*; Aib = CC(C)(N)C(=O)O; OBn = c1ccc(CO*)cc1; βAla = NCCC(=O)O

- COMPOUND: "O=C(CC(=O)n1nc(-c2ccccc2)c(N=Nc2ccc(Cl)cc2)c1-c1ccccc1)Nc1cccc(Cl)c1"
  TGI: "> 100 µM"
- COMPOUND: "COc1ccc(-c2cc3c(nn2)-c2ccccc2C3=O)cc1"
  TGI: "> 10 µM"
- COMPOUND: "CN(CCCNc1ccc2ncn3c4ccccc4c(=O)c1c23)CCCN1C(=O)c2cccc3cc([N+](=O)[O-])cc(c23)C1=O"
  TGI: "2.01 µM"
- COMPOUND: "CC1(C)NC(=O)C(NC(=O)C(CC(=O)OCc2ccccc2)NC(=O)OCc2ccccc2)CCCCNC(=O)CCNC1=O (configuration not stated) (Cbz-D(OBn)K[Aib][βAla]; lactam 2-C; configuration not given here)"
  TGI: "> 100 µM"
- COMPOUND: "C=CCNc1ccc(C)cc1"
  TGI: "> 100 µM"
- COMPOUND: "COc1ccccc1N1C(=O)/C(=C\\c2cccc(Oc3ccccc3)c2)SC1c1ccccc1 (configuration not stated)"
  TGI: "64.6 µM"
- COMPOUND: "COc1ccc2c(c1)OCc1c-2oc2ccccc2c1=O"
  TGI: "> 100 µM"
- COMPOUND: "O=C(CCc1ccc(O)cc1)NCCc1ccc(O)cc1"
  TGI: "> 100 µM"
- COMPOUND: "CO/N=C(\\C(=O)Nc1cncs1)c1csc(NC(c2ccccc2)(c2ccccc2)c2ccccc2)n1"
  TGI: "> 10 µM"
- COMPOUND: "CC(=O)c1cccc2c1CC1(C2)Cc2ccc3c(c2C1=O)CCC3 (configuration not stated)"
  TGI: "> 100 µM"
- COMPOUND: "Cc1cc(O)c(/C=N/C(=S)NCCc2ccccc2)c(=O)o1"
  TGI: "> 100 µM"
- COMPOUND: "O=C(NCCCNC(=O)c1ccc2cc(O)c(O)cc2c1)c1ccc2cc(O)c(O)cc2c1"
  TGI: "> 100 µM"
- COMPOUND: "CC/C(=N/O)c1ccc(Br)s1"
  TGI: "> 100 µM"
- COMPOUND: "CC(C(=O)N1c2ccccc2Sc2ccccc21)N1c2ccccc2Sc2ccccc21 (configuration not stated)"
  TGI: "> 100 µM"
- COMPOUND: "O=C1NC(Nc2cccc(Cl)c2)=N/C1=C\\c1ccc(Cl)c(Cl)c1"
  TGI: "15.8 µM"
- COMPOUND: "O=C(c1ccc(Cl)cc1Cl)N(C(=O)N1CCCCC1)c1ccccc1"
  TGI: "> 100 µM"
- COMPOUND: "Cn1c(=O)c2c(nc(NCCCCl)n2CC(=O)NCCCCl)n(C)c1=O"
  TGI: "> 100 µM"
- COMPOUND: "COc1cc(C2c3cc4c(cc3[C@H](OCCN(C)C)[C@@H]3COC(=O)C23)OCO4)cc(OC)c1O (some centres not stated)"
  TGI: "30 µM"
- COMPOUND: "CC(=O)OCC1OC(N2C(c3ccccc3)=CC(c3ccccc3)C(C#N)=C2S)C(OC(C)=O)C(OC(C)=O)C1OC(C)=O (configuration not stated)"
  TGI: "15.1 µM"
- COMPOUND: "O=C1SCC(O)=C1/C=N/Nc1nc2ccccc2o1"
  TGI: "> 100 µM"
- COMPOUND: "O=C(CC(=O)N(C(=O)c1ccccc1)c1ccc(Cl)cc1)N/N=C\\c1cc(N=Nc2ccccc2Cl)ccc1O"
  TGI: "> 100 µM"
- COMPOUND: "CSc1nc(Cl)c2c(n1)Sc1nc3cc4c(cc3n1C2O)OCO4 (configuration not stated)"
  TGI: "36.1 µM"
